Test Protocol: inhibitors of Chlamydomonas gravitaxis, primary screen, whole organism, Chlamydomonas reinhardtii, WT vs cilia-less mutant, absorbance, 96-well (AID 463189);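 also: 0% = wild type cc124 cells in DMSO and 100% = ciliumless bld1 mutant cells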
Test Context: OD600 absorbance, 2 days, at 10 µM, active compounds read high
Attribute Measured: inhibition (%)

Cc1cc(OCCN2CCCCC2)nc2ccccc12 = 39.2
CC1CN(C2CCN(S(=O)(=O)Cc3ccccc3)CC2)CC(C)O1 (stereo not given) = 32.6
CC1(C)CC(=O)C(CCCN2C(=O)c3ccccc3C2=O)C(=O)C1 = 18
COc1ccccc1-c1nn2c(-c3ccco3)nnc2s1 = 10.9
Cn1c(=O)c2c3c(sc2n2c(SCC(=O)c4ccc(Cl)cc4)nnc12)COC(C)(C)C3 = 0.223
COc1ccccc1N1CCN(CCCCOc2ccc(F)cc2)CC1 = 9.82
c1ccc(N2CCN(c3nc(NCc4ccco4)c4ccccc4n3)CC2)cc1 = 35.9
COC(=O)Nc1nc2ccc(Sc3ccccc3)cc2[nH]1 = -5.89
CCOc1ccc(Br)cc1CC(=O)O = -8.79
COC(=O)c1ccc(C2NC(C(=O)O)CS2)cc1 (stereo not given) = 5.15
CCCCc1cc(=O)oc2c(CN(C)C)c(O)c(Cl)cc12 = 0.735
O=C(NCc1ccco1)c1ccc(=O)oc1 = 2.62
CC(C)(C)C1=Nn2c(nnc2-c2ccccn2)SC1 = -9.77
CC(C)OC(=O)C(C#N)c1nc2ccccc2nc1N1CCCC1 (stereo not given) = 5.71
Cc1ccc(SCc2c(C#N)c3ccccc3n2C)cc1 = 16.9
CSc1nc2sc3c(c2c(=O)[nH]1)CCC(C)C3 (stereo not given) = 3.37
COc1cccc(OC)c1OCC(C)CNCC1CCCO1 (stereo not given) = 11.3
COc1ccc2c(c1)[nH]c1c(=O)n(CC3CCCO3)cnc12 (stereo not given) = 0.053
S=C(N=Nc1ccccc1)NNc1ccccc1 = 12.8
OCC(O)CN1CCN(c2ccccc2)CC1 (stereo not given) = 19.7
CCN(CC)CCN1C(=O)C(=O)/C(=C(/O)c2ccc(C)cc2)C1c1cccnc1 (stereo not given) = 8.05
O=C1OC(Nc2ccc(Br)cn2)c2ccccc21 (stereo not given) = -9.02
Cc1sccc1C1C(C#N)=C(N)SC(N)=C1C#N = -2.96
Cc1nc2c(c(=O)n1CC1CCCO1)c1nc3ccccc3nc1n2CCC(C)C (stereo not given) = 24.8
CC1(C)Cc2c(C#N)c(OCC(=O)c3ccc(Cl)cc3)nc(-c3ccoc3)c2CO1 = 40.4
c1ccc2[nH]c(-c3cscn3)nc2c1 = 45
Cc1cc(C)nc(NC2=NCC(=O)N2c2ccccc2)n1 = -0.727
CCCC(=O)Nc1ncnc2c1ncn2[C@@H]1O[C@@H]2COP(=O)(O)O[C@H]2[C@H]1OC(=O)CCC = 29.3
CC(=O)NS(=O)(=O)c1ccc(N)cc1 = 46.5
COc1cccc(-c2nc(NCc3ccco3)c3ccccc3n2)c1O = 14.5
c1ccc2c(c1)NC(c1ccncc1)n1c-2nc2ccccc21 (stereo not given) = -2.42
Cc1ccc(C(=O)C2=C(O)C(=O)N(c3ncccn3)C2c2cccc(Cl)c2)o1 (stereo not given) = 1.33
Cc1cc(C)c(C#N)c(SCC(=O)NC2CC2)n1 = 0.954
COc1ccc(OC)c(C2/C(=C(/O)c3ccc(C)cc3)C(=O)C(=O)N2Cc2ccco2)c1 (stereo not given) = -7.49
Cc1cc(=O)[nH]c(SCC(=O)c2ccccc2)c1C#N = -2.65
Cc1ccc(SCc2[nH]nc3c2C(c2ccc(C)o2)C(C#N)=C(N)O3)cc1 (stereo not given) = 25.7
Cc1nc(-c2cn[nH]c2)c2cc(C)oc2n1 = -8.8
CCSc1nc(N)c(C#N)c(-c2ccccc2Cl)c1C#N = -6.34
O=C1CC(N(O)C2CC(=O)N(Cc3ccccc3)C2=O)C(=O)N1Cc1ccccc1 (stereo not given) = 13.4
COc1ccc(N2C(=O)CN=C2Nc2nc(C)cc(C)n2)cc1 = 0.296
